Quick reference: IC50 of the listed items.
target: Rac GTPase-activating protein 1 (Homo sapiens, UniProt Q9H0H5); test: MgcRacGAP GTPase-activating activity inhibitors, confirmation, biochemical, ADP Hunter fluorescence, primary and confirmatory (AID 624330); assay type: functional
Sequence (Q9H0H5 whole entry): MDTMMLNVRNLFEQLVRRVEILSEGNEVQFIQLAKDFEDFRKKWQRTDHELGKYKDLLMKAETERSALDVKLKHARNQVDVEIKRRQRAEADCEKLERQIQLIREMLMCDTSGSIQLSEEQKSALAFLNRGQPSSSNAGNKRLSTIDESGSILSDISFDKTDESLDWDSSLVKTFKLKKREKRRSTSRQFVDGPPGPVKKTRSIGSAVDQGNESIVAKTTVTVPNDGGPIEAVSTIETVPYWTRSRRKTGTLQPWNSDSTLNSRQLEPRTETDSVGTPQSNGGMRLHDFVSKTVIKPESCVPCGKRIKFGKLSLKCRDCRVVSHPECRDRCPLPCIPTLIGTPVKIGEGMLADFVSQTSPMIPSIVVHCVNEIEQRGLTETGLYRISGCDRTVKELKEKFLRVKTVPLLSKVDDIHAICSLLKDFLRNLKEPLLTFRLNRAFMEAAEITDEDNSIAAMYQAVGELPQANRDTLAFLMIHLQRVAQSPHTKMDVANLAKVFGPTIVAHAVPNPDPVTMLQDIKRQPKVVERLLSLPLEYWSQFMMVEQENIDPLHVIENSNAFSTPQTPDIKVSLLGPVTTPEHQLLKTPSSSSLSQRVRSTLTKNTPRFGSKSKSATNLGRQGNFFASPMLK
The source made the active and inactive calls. The rule behind the calls is not given here.

Solved cases below.
[[record]]
compound = "COc1cc(/C=N/NC(=O)c2ccc(O)nn2)ccc1O"
assay_metric = "IC50"
value_measured = "23.9 µM (active)"

[[record]]
compound = "O=C1CC(Nc2ccc(N3CCOCC3)cc2)C(=O)N1Cc1ccccc1 (configuration not stated)"
assay_metric = "IC50"
value_measured = "140 µM (active)"

[[record]]
compound = "COc1ccc(NC2CCCN(C(=O)CCc3ccccc3F)C2)cc1 (configuration not stated)"
assay_metric = "IC50"
value_measured = "65.4 µM (active)"

[[record]]
compound = "COc1nc(N)nc(NC(=O)c2cccs2)c1N=O"
assay_metric = "IC50"
value_measured = "116 µM (active)"


What measured IC50 goes with `Nc1nc(N)c2[nH]c(S)nc2n1` ? 163 µM (active)

What measured IC50 goes with `O=C(O)c1ccc2nc(-c3ccco3)c(-c3ccco3)nc2c1` ? 159 µM (active)

What measured IC50 goes with `Fc1ccc(CNc2ccc(N3CCN(Cc4ccccc4)CC3)cc2)cc1` ? 15.4 µM (active)

What measured IC50 goes with `O=C(CCCCCNC(=O)c1ccccc1)N/N=C/c1ccc(O)cc1O` ? 69.9 µM (active)

What measured IC50 goes with `Cn1c(-c2ccccc2)cnc1NCc1ccc(-c2ccccc2)cc1` ? 78.1 µM (active)

What measured IC50 goes with COc1ccc(NC2CCCN(C(=O)CSc3ccccc3)C2)cc1OC (configuration not stated) ? 60 µM (active)

What measured IC50 goes with `COc1ccc(C=NNC(=O)c2cc(C)oc2C)cc1O` ? 107 µM (active)

What measured IC50 goes with `CCOC(=O)C1CCN(Cc2c[nH]nc2-c2ccccc2)CC1` ? 131 µM (active)
